system: UACC-257 melanoma; assay: NCI-60 one-dose screen, 48 h (100 = growth as untreated, 0 = no growth, -100 = all killed); conditions: 10 µM unless noted
Compounds without any hit were thinned out: in the full panel of roughly 83,000, 20% have a hit. Calls of active or inactive are those of the source. How the source made its calls: active means growth percent below 10; inactive means the rest.
Measurement Kind: growth

NC1=NC(c2cccc(Br)c2)c2sc3ccc(Cl)cc3c2N1 (centres undefined)	98.8% (inactive)
CCOC(=O)Cn1c(=O)c2c(c3ccccc3n2C)n2nnc(-c3ccccc3)c12	102% (inactive)
CCc1cccc2c1S/C(=C/c1ccc(OC)cc1)C2=O	72.6% (inactive)

Input line: Look up and state reported growth for `O=S(=O)(NCCCNc1cc(-c2c(-c3cccc(O)c3)nc3sccn23)ccn1)c1cccc2ccccc12`
Output line: 61.2% (inactive)

----------
test system: MOLT-4 leukemia; assay: NCI-60 one-dose screen, 48 h (100 = growth as untreated, 0 = no growth, -100 = all killed); details: 10 µM unless noted
Compounds without any hit were thinned out: in the full panel of roughly 83,000, 20% have a hit. The source made the active and inactive calls. The calls were made as follows: active = growth percent below 10; inactive = the rest.
growth for assorted molecules

Cc1onc2c(-c3ccccc3)n[nH]c(=O)c12	76% (inactive)
CCOC(=O)NCCc1ccccc1	90.1% (inactive)
COc1cc(C(=O)N/N=C/c2cc3cc(OCc4ccccc4)ccc3nc2OC)cc(OC)c1OC	62.5% (inactive)

Input line: Look up and state reported growth for `COc1ccc(-c2cc(-c3cc(OC)c(OC)c(OC)c3)nc(N3CCOCC3)c2C#N)cc1`
Output line: 56.7% (inactive)

Input line: Look up and state reported growth for `NCCNc1nc2ccccc2c2c(=O)c3cc(F)ccc3sc12`
Output line: 46.6% (inactive)

----------
tested on: HCC-2998 colon; assay: NCI-60 one-dose screen, 48 h (100 = growth as untreated, 0 = no growth, -100 = all killed); settings: 10 µM unless noted
Compounds without any hit were thinned out: in the full panel of roughly 83,000, 20% have a hit.
growth for assorted molecules
Numeric only. Scale: %

CC(=O)CC(c1cccs1)c1c(-c2ccccc2)[nH]c2ccccc12 (stereo unspecified)	97.8

Input line: Look up and state reported growth for `O=c1c2cc(F)ccc2sc2c(N3CCNCC3)nc3ccccc3c12`
Output line: -92.1

Input line: Look up and state reported growth for `Cc1ccc(/C=N\NC(=O)c2[nH]c3ccc(F)cc3c2-c2ccccc2)cc1`
Output line: -24.8

Input line: Look up and state reported growth for `Oc1ccc(-c2nc3ccc4[nH]ncc4c3c3c2CCCC3)c2cccnc12`
Output line: 5.08

----------
tested on: MDA-MB-435 melanoma; assay: NCI-60 one-dose screen, 48 h (100 = growth as untreated, 0 = no growth, -100 = all killed); details: 10 µM unless noted
The panel holds about 83,000 compounds, 20% with a hit somewhere; the sample as a whole holds those more often.
Measurement Kind: growth (%)
Numeric only. Scale: %

Cc1cc(-c2cc(C)c(N)cc2C)c(C)cc1N	6.88
CCCCC[C@H](O)C/C=C1/C(=O)C=C[C@@H]1C/C=C\CCCC(=O)O	36.9
COc1ccc2nc(NCCCNCCO)c3sc4ccc(F)cc4c(=O)c3c2c1	-69
NCCCNc1nc2ccccc2c2c(=O)c3cc(F)cc(Cl)c3sc12	26
CCCCNc1nc(NN2C(=O)c3cccc4cccc(c34)C2=O)nc(-n2cnc3ccccc32)n1	99.2
c1ccc(OCc2nnc(-c3ccc(Oc4ccccc4)cc3)o2)cc1	101
CN1CCN(c2ccc(-c3ccc4ncc(C#N)c(Nc5ccc(F)c(Cl)c5)c4c3)cn2)CC1	81.6
Cc1cc(O)c(C2=NN(c3ccc(S(N)(=O)=O)cc3)C(/C=C/c3ccccc3)C2)cc1Cl (stereo not given)	47.4

Input line: Look up and state reported growth for `Oc1ccc(C#CCOc2ccccc2)cc1CNCCN(Cc1ccccn1)Cc1ccccn1`
Output line: 32.6

Input line: Look up and state reported growth for `NCCCNc1nc2ccccc2c2c(=O)c3cc(C(F)(F)F)ccc3sc12`
Output line: -80.9

----------
system: 786-0 renal; test: NCI-60 one-dose screen, 48 h (100 = growth as untreated, 0 = no growth, -100 = all killed); conditions: 10 µM unless noted
This is part of a sample that, as a whole, favours compounds with a hit. Of some 83,000 tested, about 20% had one in any assay.
growth for assorted molecules
Numeric only. Scale: %

Input line: Look up and state reported growth for `Nc1ccccc1-c1cc2c(c3c1[nH]c1ccccc13)CCCCC2`
Output line: 89.3

Input line: Look up and state reported growth for O=C1CCC(C(=O)NCCNCCNC(=O)C2CCC(=O)N2)N1 (stereo unspecified)
Output line: 101

Input line: Look up and state reported growth for `Cc1nc2nc(SCC(=O)O)[nH]c2c(=O)[nH]1`
Output line: 104

----------
system: SNB-19 CNS; assay: NCI-60 one-dose screen, 48 h; conditions: 10 µM unless noted
The panel holds about 83,000 compounds, 20% with a hit somewhere; the sample as a whole holds those more often. Calls of active or inactive are those of the source. Rule for the calls: active = growth percent below 10; inactive = the rest.
Hello, when you answer, please use one of the following outcomes: active, inactive

Below, 4 compounds whose answers are already recorded.
COc1ccc(/C=C/c2c(C(=O)/C=C/c3ccc(Cl)cc3)c(C)nc3ccccc23)cc1	inactive
Clc1ccc2c(c1)N(CCCN1CCCC1)c1ccccc1S2	inactive
CCCCCCCCCCCCCCCCCCOc1ccc(CC(=O)OCC[N+](C)(C)C)cc1	inactive
COc1ccc2c(c1)c(-c1nn3cc(-c4cccs4)nc3s1)cn2C	inactive

Input line: So what was the verdict on COc1cc(OCc2cccc(-c3ccc(C(O)c4nccs4)cc3)c2C)cc(OC)c1CNCCNC(C)=O (centres undefined) in this test?
Output line: inactive

Input line: So what was the verdict on `O=C(N/N=C/[C@H](O)[C@H](O)[C@H](O)CO)c1ccc(NC(=O)c2cccnc2)cc1` in this test?
Output line: inactive

Input line: So what was the verdict on `COC(=O)Nc1ccc(-c2nc(-c3cccc(OC)c3)c(-c3ccnc(Br)c3)[nH]2)cc1` in this test?
Output line: inactive

Input line: So what was the verdict on `O=C(N/N=C/[C@@H](O)[C@H](O)[C@H](O)CO)c1ccc(NC(=O)c2cccnc2)cc1` in this test?
Output line: inactive

Input line: So what was the verdict on `COc1cc2cc(Oc3ccc(NC(=O)Nc4ccc(Cl)c(C(F)(F)F)c4)cc3)c(C)nc2cc1OCCN1CCOCC1` in this test?
Output line: inactive

Input line: So what was the verdict on `C[C@H](C(=O)Nc1ccc(S(N)(=O)=O)cc1)S(=O)(=O)c1ccccc1` in this test?
Output line: inactive

Input line: So what was the verdict on `CCCCCCNC(=O)Oc1ccc(/C(=C(\C)c2ccc(Cl)cc2)c2ccc(OCCCN(C)C)cc2)cc1` in this test?
Output line: inactive

----------
tested on: T-47D breast; assay: NCI-60 one-dose screen, 48 h (100 = growth as untreated, 0 = no growth, -100 = all killed); settings: 10 µM unless noted
About 83,000 compounds went through this panel and 20% of them were active in at least one assay; those are over-represented in the sample as a whole.
growth for assorted compounds
Numeric only. Scale: %

Example entries begin here.
Cc1c(C(=O)NCCN2CCOCC2)cn2ncnc(Oc3ccc(NC(=O)Nc4ccc(Cl)c(C(F)(F)F)c4)cc3)c12	15
Cc1cccc(NCc2cn(-c3ccc(C(=O)O)cc3)nc2-c2ccc(C(=O)O)cc2)n1	100
CCN1C(=O)N(CC)C2Nn3c(s/c(=C4\C(=O)Nc5ccccc54)c3=O)=NC21 (centres undefined)	45.8
O=c1c2cccc(Cl)c2sc2c(NCCCNCCO)nc3ccccc3c12	42.7
COc1cccc(/C=C2\C=C(c3ccccc3)N(Cc3ccccc3)C2=O)c1	59.8

Input line: Look up and state reported growth for `C/C(=C(/c1ccccc1)c1ccc(N2C(=O)c3cccc4c(N5CCN(C)CC5)ccc(c34)C2=O)cc1)c1ccccc1`
Output line: 65.3

Input line: Look up and state reported growth for CC(=O)N1CCN(c2ccc(OCC3CO[C@](Cn4ccnc4)(c4ccc(Cl)cc4Cl)O3)cc2)CC1 (some centres undefined)
Output line: 51.1

Input line: Look up and state reported growth for `BrCCCc1n(Cc2ccc3ccccc3c2)c2ccccc2[n+]1Cc1ccc2ccccc2c1`
Output line: -10.9

Input line: Look up and state reported growth for `COc1ccc(-c2nc(NCCO)[nH]c(=O)c2C#N)cc1`
Output line: 82.8

----------
growth for assorted molecules
Tested on: HCT-116 colon
Experiment: NCI-60 one-dose screen, 48 h (100 = growth as untreated, 0 = no growth, -100 = all killed)
Settings: 10 µM unless noted
Experimental: Growth inhibition of the HCT-116 human tumor cell line is measured as a screen for anti-cancer activity. Cells are grown in 96 well plates and exposed to the test compound for 48 hours. Compounds are tested at a single concentration, which is 10^-5 M for most compounds. The reported endpoint is percent growth (GI% or GIPRCNT), where numbers from 0 - 100% represent growth inhibition, and numbers from -100% - 0 represent cell death. For example, a value of 40 represents 60% growth inhibition. […]
Compounds without any hit were thinned out: in the full panel of roughly 83,000, 20% have a hit.
Numeric only. Scale: %

Example entries begin here.
COc1cc(/C=C/C(=O)/C=C/c2cc(OC)c3c(c2OC)OCO3)c(OC)c2c1OCO2	2.58
O=c1c2cc(F)ccc2sc2c(N3CCNCC3)nc3ccc(F)cc3c12	-61.2
O=c1c2cc(F)ccc2sc2c(N3CCCCC3)nc3ccccc3c12	90.9

Now take the following molecule into account.
Input line: Look up and state reported growth for `COc1ccc(C(=O)COC(=O)[C@H](C[Se][Se]C[C@H](NC(=O)c2ccc(Br)cc2F)C(=O)OCC(=O)c2ccc(OC)cc2)NC(=O)c2ccc(Br)cc2F)cc1`
Output line: -69.1
